# target.under.test: 5-hydroxytryptamine receptor 2A (Mus musculus)
# assay.name: mouse Htr2a agonists via beta-arrestin recruitment, primary screen, cell-based, luminescence (AID 624169);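 note: 0% = plate median of compound wells and 100% = 30 µM serotonin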
# condition.label: CHO-K1 mHTR2A beta-arrestin complementation, at 7.6 µM, stronger effect = higher value, percent of 30 µM serotonin response
The campaign covered roughly 360,000 compounds. About 2,400 (0.67%) were called active. This excerpt belongs to a sample that is enriched for actives.
readout.name: activation (%)
Use % as the unit, but write only the number.

Measured activation, CC1CCCCC1NC(=O)CCS(=O)(=O)c1ccc2c(c1)NC(=O)CO2 (stereo unspecified) : 1.84

---

# target.under.test: 5-hydroxytryptamine receptor 2A (Mus musculus)
# assay.name: mouse Htr2a agonists via beta-arrestin recruitment, primary screen, cell-based, luminescence (AID 624169);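 note: 0% = plate median of compound wells and 100% = 30 µM serotonin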
# condition.label: CHO-K1 mHTR2A beta-arrestin complementation, at 7.6 µM, stronger effect = higher value, percent of 30 µM serotonin response
About 2,400 (0.67%) of roughly 360,000 compounds were called active. The entries come from a sample that favours actives as a whole.
Let's look at some compounds and their measured activation.
Use % as the unit, but write only the number.

Some compounds with known activation results, for comparison:
CCCC1CCC(=NNC(=S)NCCc2ccccc2)CC1 (configuration not stated) :: 0.18
COc1ccc(NS(=O)(=O)c2cc(C(=O)Nc3ccccc3C(=O)O)ccc2C)cc1 :: 17.9
Cc1ccc(C(=O)Nc2ccccc2-c2ccccc2)cc1S(=O)(=O)Nc1ccccc1 :: 5.68
COC(=O)c1ccc(NS(=O)(=O)c2cc3c4c(c2)C(C)C(=O)N4CCC3)cc1 (configuration not stated) :: 2.55
O=S(=O)(Cc1cc(Cl)nc(-c2cccnc2)n1)c1ccccc1 :: -2.49

Measured activation, CC1C(C)N(C(=O)CCl)c2ccccc2N1C(=O)CCl (configuration not stated) : -1.04

Measured activation, O=C(c1ccc2ccccc2n1)N1CCN(c2ccccc2Cl)CC1 : 7.25

---

# target.under.test: 5-hydroxytryptamine receptor 2A (Mus musculus)
# assay.name: mouse Htr2a agonists via beta-arrestin recruitment, primary screen, cell-based, luminescence (AID 624169);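 note: 0% = plate median of compound wells and 100% = 30 µM serotonin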
# condition.label: CHO-K1 mHTR2A beta-arrestin complementation, at 7.6 µM, percent of 30 µM serotonin response
In all, about 360,000 compounds went through this assay and about 2,400 (0.67%) were called active.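 The calls were made as follows: active = activation above a run cutoff, the mean activation of all tested compounds plus 3 SD (cut at about 14% in these data); inactive = the rest.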 The list comes from a sample in which actives are over-represented; it also holds close analogues and randomly drawn compounds.
Answer with one of the outcomes given here: label 1 (active), label 0 (inactive)

Consider the worked cases shown below.
CCOC(=O)c1ccc(NC(=O)CS(=O)(=O)c2cn(CC)c3ccccc23)cc1 :: label 0
O=C(COC(=O)CNC(=O)C1CCCCC1)NCc1ccccc1 :: label 0
O=C(CN1CCC(O)(c2cccc(C(F)(F)F)c2)CC1)NCCc1ccccc1 :: label 0

Identify the outcome logged in this assay for the molecule shown: Cc1ccc2[nH]cc(CCCN3C(=O)c4ccccc4C3=O)c2c1
label 0

Identify the outcome logged in this assay for the molecule shown: COc1ccc2[nH]cc(CCN3C(=O)c4ccc(C(=O)O)cc4C3=O)c2c1
label 1

Identify the outcome logged in this assay for the molecule shown: Cc1ccc2nc(-c3ccncc3)cc(C(=O)Nc3ccncc3)c2c1
label 1

Identify the outcome logged in this assay for the molecule shown: Cc1ccc2nc(-c3ccncc3)cc(C(=O)Nc3ccc(OC(F)F)cc3)c2c1
label 0
